Assay: Cmax of aliskiren hemifumarate following 8 day once-daily dosing of SPP100B oral solution at 640 mg level studied on day 8 in men
Assay type: ADME, organism-based
Details: male, human, plasma
measure.name: Cmax (ng/mL)
The figure you give is taken to be in ng/mL; do not add the unit.

Lookup: Look up and report measured Cmax for this entry: COCCCOc1cc(C[C@@H](C[C@H](N)[C@@H](O)C[C@H](C(=O)NCC(C)(C)C(N)=O)C(C)C)C(C)C)ccc1OC.COCCCOc1cc(C[C@@H](C[C@H](N)[C@@H](O)C[C@H](C(=O)NCC(C)(C)C(N)=O)C(C)C)C(C)C)ccc1OC.O=C(O)/C=C/C(=O)O [ALISKIREN FUMARATE]
Found: 335

* * *

Target: CYP2A6 (Homo sapiens)
Sequence (P11509 whole entry): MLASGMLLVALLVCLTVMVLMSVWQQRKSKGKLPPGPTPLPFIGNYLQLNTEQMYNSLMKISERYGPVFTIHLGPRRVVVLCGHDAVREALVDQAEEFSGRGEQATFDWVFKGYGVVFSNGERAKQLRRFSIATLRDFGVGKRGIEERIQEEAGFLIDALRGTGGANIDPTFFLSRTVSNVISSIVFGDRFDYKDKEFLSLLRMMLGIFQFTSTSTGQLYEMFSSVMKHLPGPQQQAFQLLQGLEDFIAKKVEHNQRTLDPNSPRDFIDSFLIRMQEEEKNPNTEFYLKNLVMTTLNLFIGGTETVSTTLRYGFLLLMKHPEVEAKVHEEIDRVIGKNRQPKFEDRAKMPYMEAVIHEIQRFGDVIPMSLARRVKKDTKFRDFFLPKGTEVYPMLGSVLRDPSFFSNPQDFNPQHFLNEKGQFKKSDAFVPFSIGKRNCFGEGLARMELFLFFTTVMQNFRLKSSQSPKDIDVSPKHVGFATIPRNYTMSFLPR
Assay: in vitro
Conditions: probe coumarine
measure.name: inhibition at 100 µM (%)
The figure you give is taken to be in %; do not add the unit.

Lookup: Output reported inhibition at 100 µM of the molecule `N[C@@H]1C[C@H]1c1ccccc1.N[C@H]1C[C@@H]1c1ccccc1` on CYP2A6 (Homo sapiens).
Found: 98

* * *

Assay: Cmax of aliskiren hemifumarate following 2 week oral dosing of aliskiren hemifumarate at 10 mg.Kg-1 level studied on day 14 in female Callithrix jacchus
Format: ADME, organism-based
Details: marmoset, plasma
measure.name: Cmax
Note to self: number, then unit, no commentary.

Lookup: Look up and report measured Cmax for this entry: COCCCOc1cc(C[C@@H](C[C@H](N)[C@@H](O)C[C@H](C(=O)NCC(C)(C)C(N)=O)C(C)C)C(C)C)ccc1OC.COCCCOc1cc(C[C@@H](C[C@H](N)[C@@H](O)C[C@H](C(=O)NCC(C)(C)C(N)=O)C(C)C)C(C)C)ccc1OC.O=C(O)/C=C/C(=O)O [ALISKIREN FUMARATE]
Found: 6730 ng/mL

* * *

Test: t1/2 of aliskiren hemifumarate following 2 week oral dosing of aliskiren hemifumarate at 100 mg.Kg-1 level studied on day 1 in male Callithrix jacchus
Type: ADME, organism-based
Details: marmoset, plasma
measure.name: half-life (h)
The figure you give is taken to be in h; do not add the unit.

Lookup: Look up and report measured half-life for this entry: COCCCOc1cc(C[C@@H](C[C@H](N)[C@@H](O)C[C@H](C(=O)NCC(C)(C)C(N)=O)C(C)C)C(C)C)ccc1OC.COCCCOc1cc(C[C@@H](C[C@H](N)[C@@H](O)C[C@H](C(=O)NCC(C)(C)C(N)=O)C(C)C)C(C)C)ccc1OC.O=C(O)/C=C/C(=O)O [ALISKIREN FUMARATE]
Found: 12.8

* * *

Assay: Tmax of aliskiren hemifumarate following 8 day once-daily dosing of SPP100B oral solution at 80 mg level studied on day 8 in men
Type: ADME, organism-based
Details: male, human, plasma
measure.name: Tmax (h)
The figure you give is taken to be in h; do not add the unit.

Lookup: Look up and report measured Tmax for this entry: COCCCOc1cc(C[C@@H](C[C@H](N)[C@@H](O)C[C@H](C(=O)NCC(C)(C)C(N)=O)C(C)C)C(C)C)ccc1OC.COCCCOc1cc(C[C@@H](C[C@H](N)[C@@H](O)C[C@H](C(=O)NCC(C)(C)C(N)=O)C(C)C)C(C)C)ccc1OC.O=C(O)/C=C/C(=O)O [ALISKIREN FUMARATE]
Found: 1.8

* * *

Biological target: CYP2A6 (Homo sapiens)
Experiment: Inhibitory activity of 20 uM SPP100 on 37 Pmoles of cDNA-derived CYP2A6 enzyme in microsome prepared from human lymphoblastoid cell line
Type: ADME, microsomes
Parameters: conc 20 uM, interact cpd conc 3 uM
Details: probe coumarine
measure.name: inhibition at 20 µM
Note to self: number, then unit, no commentary.

Lookup: Output reported inhibition at 20 µM of the compound `COCCCOc1cc(C[C@@H](C[C@H](N)[C@@H](O)C[C@H](C(=O)NCC(C)(C)C(N)=O)C(C)C)C(C)C)ccc1OC` on CYP2A6 (Homo sapiens).
Found: 2.6%

* * *

Assay: Tmax of aliskiren hemifumarate following 2 week oral dosing of aliskiren hemifumarate at 10 mg.Kg-1 level studied on day 14 in female Callithrix jacchus
Type: ADME, organism-based
Conditions: marmoset, plasma
measure.name: Tmax

Lookup: Look up and report measured Tmax for this entry: COCCCOc1cc(C[C@@H](C[C@H](N)[C@@H](O)C[C@H](C(=O)NCC(C)(C)C(N)=O)C(C)C)C(C)C)ccc1OC.COCCCOc1cc(C[C@@H](C[C@H](N)[C@@H](O)C[C@H](C(=O)NCC(C)(C)C(N)=O)C(C)C)C(C)C)ccc1OC.O=C(O)/C=C/C(=O)O [ALISKIREN FUMARATE]
Found: 1 h

* * *

Experiment: AUC (0-24h) of aliskiren hemifumarate following 4 week oral dietary dosing of aliskiren hemifumarate at 500 mg.Kg-1 level in male mouse
Format: ADME, organism-based
Settings: CB6F1-TGrasH2, mouse, plasma
measure.name: AUC(0-t) at 24 h (ng·h/mL)
The figure you give is taken to be in ng·h/mL; do not add the unit.

Lookup: Look up and report measured AUC(0-t) at 24 h for this entry: COCCCOc1cc(C[C@@H](C[C@H](N)[C@@H](O)C[C@H](C(=O)NCC(C)(C)C(N)=O)C(C)C)C(C)C)ccc1OC.COCCCOc1cc(C[C@@H](C[C@H](N)[C@@H](O)C[C@H](C(=O)NCC(C)(C)C(N)=O)C(C)C)C(C)C)ccc1OC.O=C(O)/C=C/C(=O)O [ALISKIREN FUMARATE]
Found: 1700

* * *

Experiment: Cmax (0-96h) of total radioactivity following oral administration of [14C] aliskiren hemifumarate at 100 mg.Kg-1 level in rat
Format: ADME, organism-based, Albino HAN:WIST, Plasma
Settings: in vivo
measure.name: Cmax (nM)
The figure you give is taken to be in nM; do not add the unit.

Lookup: Look up and report measured Cmax for this entry: `COCCCOc1cc(C[C@@H](C[C@H](N)[C@@H](O)C[C@H](C(=O)NCC([14CH3])([14CH3])C(N)=O)C(C)C)C(C)C)ccc1OC.O=C(O)/C=C/C(=O)O`
Found: 416

* * *

Assay: Oral clearance of SPP100 following single oral dose of SPP100 150 mg capsule studied in healthy human
Assay type: ADME, organism-based
Details: plasma
measure.name: CL/F (mL/min)
The figure you give is taken to be in mL/min; do not add the unit.

Lookup: Look up and report measured CL/F for this entry: `COCCCOc1cc(C[C@@H](C[C@H](N)[C@@H](O)C[C@H](C(=O)NCC(C)(C)C(N)=O)C(C)C)C(C)C)ccc1OC`
Found: 5350

* * *

Biological target: CYP2C19 (Homo sapiens)
Sequence (P33261 whole entry): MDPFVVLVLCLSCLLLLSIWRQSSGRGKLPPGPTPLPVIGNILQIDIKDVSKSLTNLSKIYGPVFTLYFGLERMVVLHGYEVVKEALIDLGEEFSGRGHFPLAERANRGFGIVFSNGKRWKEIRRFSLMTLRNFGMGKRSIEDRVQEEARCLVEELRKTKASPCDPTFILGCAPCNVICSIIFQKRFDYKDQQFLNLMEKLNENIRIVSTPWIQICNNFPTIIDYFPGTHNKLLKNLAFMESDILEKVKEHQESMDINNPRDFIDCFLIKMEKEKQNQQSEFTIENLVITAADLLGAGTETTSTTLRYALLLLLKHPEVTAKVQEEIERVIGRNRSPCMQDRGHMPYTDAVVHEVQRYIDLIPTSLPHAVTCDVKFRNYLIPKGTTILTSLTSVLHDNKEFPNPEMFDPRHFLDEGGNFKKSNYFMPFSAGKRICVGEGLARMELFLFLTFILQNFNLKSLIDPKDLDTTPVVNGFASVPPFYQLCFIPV
Experiment: in vitro
Conditions: probe (S)-mephenytoin (50 uM)
Description: Inhibitory activity of 100 uM tranylcypromine on 49 Pmoles of cDNA-derived CYP2C19 enzyme in microsome prepared from human lymphoblastoid cell line
measure.name: inhibition at 100 µM (%)
The figure you give is taken to be in %; do not add the unit.

Lookup: Look up and report measured inhibition at 100 µM for this entry: `N[C@@H]1C[C@H]1c1ccccc1.N[C@H]1C[C@@H]1c1ccccc1`
Found: 96

* * *

Target: CYP2C9 (Homo sapiens, UniProt P11712)
Sequence (P11712 whole entry): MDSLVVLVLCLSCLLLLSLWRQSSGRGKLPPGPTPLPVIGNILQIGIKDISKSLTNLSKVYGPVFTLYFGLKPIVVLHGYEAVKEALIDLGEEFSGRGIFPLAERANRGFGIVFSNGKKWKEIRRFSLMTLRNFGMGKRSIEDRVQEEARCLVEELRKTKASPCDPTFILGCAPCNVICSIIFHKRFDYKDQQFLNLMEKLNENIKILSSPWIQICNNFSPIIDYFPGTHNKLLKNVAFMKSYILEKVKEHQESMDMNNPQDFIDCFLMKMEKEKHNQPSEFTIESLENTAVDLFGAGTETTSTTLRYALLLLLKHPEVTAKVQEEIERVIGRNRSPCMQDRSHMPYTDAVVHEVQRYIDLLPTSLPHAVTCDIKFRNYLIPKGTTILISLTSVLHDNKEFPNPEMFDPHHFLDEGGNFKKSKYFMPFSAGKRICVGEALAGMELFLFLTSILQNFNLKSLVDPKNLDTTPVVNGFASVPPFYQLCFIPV
Test: Inhibitory activity of 200 uM SPP100 on 201 Pmoles of cDNA-derived CYP2C9 enzyme in microsome prepared from human lymphoblastoid cell line
Assay type: ADME, microsomes
Parameters: conc 200 uM, interact cpd conc 6 uM
Settings: probe diclofenac
measure.name: inhibition at 200 µM (%)
The figure you give is taken to be in %; do not add the unit.

Lookup: Look up and report measured inhibition at 200 µM for this entry: `COCCCOc1cc(C[C@@H](C[C@H](N)[C@@H](O)C[C@H](C(=O)NCC(C)(C)C(N)=O)C(C)C)C(C)C)ccc1OC`
Found: 23

* * *

Assay: AUC of unlabeled aliskiren hemifumarate following single intravenous dose of aliskiren hemifumarate at 10 mg.Kg-1 level in mouse
Format: ADME, organism-based
Conditions: TgRasH2, mouse, plasma
measure.name: AUC (µM·h)
The figure you give is taken to be in µM·h; do not add the unit.

Lookup: Look up and report measured AUC for this entry: COCCCOc1cc(C[C@@H](C[C@H](N)[C@@H](O)C[C@H](C(=O)NCC(C)(C)C(N)=O)C(C)C)C(C)C)ccc1OC.COCCCOc1cc(C[C@@H](C[C@H](N)[C@@H](O)C[C@H](C(=O)NCC(C)(C)C(N)=O)C(C)C)C(C)C)ccc1OC.O=C(O)/C=C/C(=O)O [ALISKIREN FUMARATE]
Found: 9.03

* * *

Assay: Tmax of aliskiren hemifumarate following single dosing of SPP100B oral solution at 40 mg level studied on day 1 in men
Type: ADME, organism-based
Details: male, human, plasma
measure.name: Tmax
Note to self: number, then unit, no commentary.

Lookup: Look up and report measured Tmax for this entry: COCCCOc1cc(C[C@@H](C[C@H](N)[C@@H](O)C[C@H](C(=O)NCC(C)(C)C(N)=O)C(C)C)C(C)C)ccc1OC.COCCCOc1cc(C[C@@H](C[C@H](N)[C@@H](O)C[C@H](C(=O)NCC(C)(C)C(N)=O)C(C)C)C(C)C)ccc1OC.O=C(O)/C=C/C(=O)O [ALISKIREN FUMARATE]
Found: 1.6 h

These measurements were taken from ChEMBL document CHEMBL3508693.
